Test system: Transthyretin (Homo sapiens), P02766 [V50M]
method summary: Inhibition of recombinant Transthyretin V30M mutant (unknown origin) expressed in Escherichia coli expression system assessed as acid mediated fibril formation at 1.8 uM preincubated for 2 hrs followed by addition of acetate buffer solution and measured after 72 hrs by UV-vis spectrophotometry relative to control
experimental setup: time 74.0 hrs, values are per cent of control
readout: response, % of control (%)

Please review the following examples before continuing.
| molecule | value observed |
| --- | --- |
| Cc1n[nH]c(C)c1/C=C/c1cc(Br)c(OC(=O)c2ccc(F)cc2)c(Br)c1 | 15.7 |
| CCCC(=O)Oc1c(Br)cc(/C=C/c2c(C)n[nH]c2C)cc1Br | 23.5 |
| Cc1n[nH]c(C)c1/C=C/c1cc(Br)c(OC(=O)c2c(F)cc(F)cc2F)c(Br)c1 | 13.8 |
| Cc1n[nH]c(C)c1/C=C/c1cc(Br)c(OC(=O)c2c(F)cccc2F)c(Br)c1 | 14.8 |

P. Cc1n[nH]c(C)c1/C=C/c1cc(Br)c(O)c(Br)c1
Q. CCC(C)C(=O)Oc1c(Br)cc(/C=C/c2c(C)n[nH]c2C)cc1Br (configuration not stated)
Prompt line: Larger number for response, % of control: P , or Q ? Kindly give the label for the entry you pick.
Response line: P
(P: 41.7%, Q: 18%)

====

subject of test: Transthyretin (Homo sapiens, UniProt P02766)
method summary: Inhibition of recombinant wild-type Transthyretin (unknown origin) expressed in Escherichia coli expression system assessed as acid mediated fibril formation at 1.8 uM preincubated for 2 hrs followed by addition of acetate buffer solution and measured after 72 hrs by UV-vis spectrophotometry relative to control
experimental setup: time 74.0 hrs, values are per cent of control
readout: response, % of control (%)

| compound | response, % of control, % |
| --- | --- |
| Cc1n[nH]c(C)c1/C=C/c1cc(Br)c(OC(=O)c2ccc(F)cc2)c(Br)c1 | 5.7 |
| CCCC(=O)Oc1c(Br)cc(/C=C/c2c(C)n[nH]c2C)cc1Br | 2.7 |

I. Cc1n[nH]c(C)c1/C=C/c1cc(Br)c(O)c(Br)c1
II. CCC(C)C(=O)Oc1c(Br)cc(/C=C/c2c(C)n[nH]c2C)cc1Br (configuration not stated)
III. Cc1n[nH]c(C)c1/C=C/c1cc(Br)c(OC(=O)c2c(F)cccc2F)c(Br)c1
IV. O=C(O)c1ccc2nc(-c3cc(Cl)cc(Cl)c3)oc2c1
V. Cc1n[nH]c(C)c1/C=C/c1cc(Br)c(OC(=O)c2c(F)cc(F)cc2F)c(Br)c1
Prompt line: Hey, quick one: sort these by response, % of control, largest value first please. // rank by listing labels in the order requested
Response line: IV, I, II, III, V

====

The reader will find reported inhibition values listed item by item below.
subject of test: Transthyretin (Homo sapiens, UniProt P02766)
method summary: Inhibition of recombinant wild-type Transthyretin (unknown origin) expressed in Escherichia coli expression system assessed as acid mediated fibril formation at 1.8 uM measured after 120 hrs by UV-vis spectrophotometry relative to control

Prompt line: inhibition for Cc1n[nH]c(C)c1/C=C/c1cc(Br)c(OC(=O)c2c(F)cc(F)cc2F)c(Br)c1 ?
Response line: < 5%

Prompt line: Name the recorded inhibition for Cc1n[nH]c(C)c1/C=C/c1cc(Br)c(OC(=O)c2c(F)cccc2F)c(Br)c1 .
Response line: < 5%

Prompt line: Can you share its inhibition? I mean this molecule: O=C(O)c1ccc2nc(-c3cc(Cl)cc(Cl)c3)oc2c1
Response line: 46%

Prompt line: Which inhibition is reported for this molecule? Cc1n[nH]c(C)c1/C=C/c1cc(Br)c(OC(=O)c2ccc(F)cc2)c(Br)c1
Response line: < 5%
